- System: MS2 coat protein
- Experiment: apparent KD of MS2 coat protein; designed switch direction (-1 OFF switch, 1 ON switch): 1; higher = weaker reporter binding
- Setup Conditions: Eterna round: R95; input ligand: FMN 200 uM
Please use satisfied whenever apparent KD of MS2 coat protein is not below 50 nM, and not satisfied whenever it is.

1) AACAAUCUAUCUGAGGAUAUCAUGAAAUAAACAUGAGGAUCACCCAUGUGCAGUAAAACUGCAUAUGAGAAGGCAGAUAGAUUGA [salish99_ss2_r3_039] (puzzle: Same State 2) :: satisfied
2) UAGUGCUGUUGAGAGGAUAUGCGGCGACGGACAUGAGGAUCACCCAUGUUAGCGACAGCGUUGCGGCAGAAGGCUCUGCCCGCUA [Soteed Omei mod 52] (puzzle: Same State 2) :: not satisfied

We next turn to a different sequence, shown below.
hey, is apparent KD of MS2 coat protein for this one >= 50 nM? GUAAAACAUGAGGAUCACCCAUGUAAUAAUAUGGGAGGAUAUGCGAAUUUAAUUAUUUAAGCAGAAGGCCUAAAUG [Mat - Same State 1 - D99] (puzzle: Same State 1)
not satisfied

* * *

- System: K4 kissing-loop RNA reporter;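 further: bound reporter read as fluorescence of individual clusters on recovered sequencing chips by microscopy, with normalized cluster intensities fitted with a binding model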
- Experiment: apparent KD of K4 kissing-loop reporter; higher = weaker reporter binding
- Setup Conditions: Eterna round: R107; input ligand: none
Measured Attribute: apparent KD of K4 kissing-loop reporter (nM)
Please state the figure in nM; there is no need to write the unit.

Look over these answered cases.
1. GUUACGCAUGGAAGGAGCGCGAAAAUUUAUAGUGAGUGAUGUUCACAAAUAAGAAUAAUAACGCAGGUAGGUCGCCAUGUGUAAC [Ex Arginine B K4 5] :: 105
2. ACGACUGGAUGAAUAACAUCUAGUCGAGAUCGAGGACCGGUACGGCCGCCACUCGAGCUAACUGCGAGUGAUGUUCGAUAAUAAA [#OpenEnded 2] :: 253
3. AAGGUCACUGCUACAGUGAUGUUGUGGGAGCAGGAUAUGCAGAAAUGCAGAAGGGCUCGCUCCAGGUGACCGAAUGAAACAUUCA [whbob_SS_FMNA__2th175] :: 1500
4. UCUGUUGUAUAUGAUACCAGCAGUGAGAGACGAGAAGUAUAGUGAUGUUAUAUGAGAGAAUGCCCUUGGCAGCGUGUGCGUGUGG [SSTheophylB.aB] :: 95.4
5. AAUAAAAUCACGGCCGCCACUGAUGCUAAUAUUGGCAGUGAUGUUGCUAUGUAUAUUUUAUUUGACAGGACCGGGUGAAUAUUUA [#24 K4 Tryptophan B Exclusion] :: 245

Look up apparent KD of K4 kissing-loop reporter: GCCCUCUUAACGGCCGCCACUAUAUUUAUGAUCUCUAGUAAGUGAUGUUUACUCCGGCUUAUAGGUAGGACCGGGUUAUUAUCUU [theeternabot_sameState_KL_Trp_B_39]
257

Look up apparent KD of K4 kissing-loop reporter: UGUGGAGGAUAUGAUACCAGCAGUGAGAGAGAGGAAGUAUAGUGAUGUUAUAUGAGAGAAUGCCCUUGGCAGCGUGUGUAGUGGG [SSTheophylB.K]
146

Look up apparent KD of K4 kissing-loop reporter: CGACGGAGUGAUGUUUCGUGGUAUGCUGAUACCAGAUGAAACAGCGUCCCUUGGCAGCAGCAUACGCCAAGGAUAAUAUCCUAGU [Theo B SS t6]
1770

Look up apparent KD of K4 kissing-loop reporter: UUUAUAAUGUCGGCCGCCACUGGAUUAAUAUUUGUAUAAUCUAGUUCAAAGUGAUGUUUUGAGUCCAGGACCGGGACAUUUGUUA [JR_ExcTryptoB_Sub003]
582

Look up apparent KD of K4 kissing-loop reporter: CACCAUGAAUUCUCUAGGAGUGAUGUUUUUCGAGGACCGGUACGGCCGCCACUCGGACGAGGACCGUGGGAGCGGCGAAGCGGCU [?oegmullin]
767

Look up apparent KD of K4 kissing-loop reporter: UUAGAUGAUUCAUCAAGAUUGAUGAGGAAACGAGGACCGGUACGGCCGCCACUCGAGUGAUGUUCGAGAACCUCAUCAAUCAAUU [AK4.4 Exc Tryptophan A]
154

Look up apparent KD of K4 kissing-loop reporter: CGCGCCCGGCCGGAUACCAGUGACCCGCUGGGAACCGCGGGCCCAGAGUGAUGUUCGGGACACCCUUGGCAGCCGCCUGGGCGUG [#2 Same State - Theophylline B Attempt #5 (HarryS)]
841

* * *

- Test system: MS2 coat protein
- Experiment: apparent KD of MS2 coat protein; higher = weaker reporter binding
- Setup Conditions: Eterna round: R107; input ligand: theophylline 20 uM
Please use satisfied whenever apparent KD of MS2 coat protein is not below 60 nM, and not satisfied whenever it is.

Below are worked cases with known answers.
1) AUACAUGAGGAUCACCCAUGUGAUGGCCGGCGAGGACCGGUACGGCCGCCACUCGUGAUCCGUCCUGAAAGCAAAGCUCCCAGCA [Lalazare] :: satisfied
2) GGCCAAAAGGCGGCCGCCACUCAAGAGUAGCAUGGAAAGACAUGAGGAUCACCCAUGUAAAGAAAGAGGACCGGGCCAAAAGGCC :: satisfied
3) AAUGCCGGAUCGGCCGCCACUGGUUGGCUCUGUGUACAUGAGGAUCACCCAUGUCCAUCCCAAACCAGGACCGGGAUCUUUGUGU [Veonmale] :: not satisfied
4) GACCCAUGAGUUGGAAAAGCUCAUGGGUCGCGAGGACCGGUACGGCCGCCACUCGGCUGUACAUGAGGAUCACCCAUGUCAGGGU [#1 Same State - Tryptophan A Attempt #25 (HarryS)] :: satisfied

We next turn to a different sequence, shown below.
hey, is apparent KD of MS2 coat protein for this one >= 60 nM? GGAUAGGACACGGCCGCCACUAGCUAGGAUACUAGCAACAUUUCCUCGCUUGAGGAUCACCCAAGUAGGACCGGGUGUCCUAUCG
satisfied

* * *

Reported apparent KD of MS2 coat protein values follow for various sequences
- System: MS2 coat protein
- Experiment: apparent KD of MS2 coat protein; designed switch direction (-1 OFF switch, 1 ON switch): 1; higher = weaker reporter binding
- Setup Conditions: Eterna round: R95; input ligand: FMN 200 uM
Please state the figure in µM; there is no need to write the unit.

Look over these answered cases.
1) AACAAUCUAUCUGAGGAUAUCAUGAAAUAAACAUGAGGAUCACCCAUGUGCAGGAAAACUGCAUAUGAGAAGGCAGAUAGAUUGU [salish99_ss2_r3_058] (puzzle: Same State 2) :: 0.0577
2) UAGAGAGGAAGCGAGGAUAUCGUGGGAGGAACAUGAGGAUCACCCAUGUGUGAUGUUGAGAGGGACGAGAAGGCGCUGGAAAUUA [JR_SS2_Sub081] (puzzle: Same State 2) :: 0.0991
3) UUAAGCCACGGGCAGGAUAUGUGUUAAAAUACAUGAGGAUCACCCAUGUGCAGGUGUAACACCUGACAGAAGGGCCAAUCGCGGC [Soondi - 2] (puzzle: Same State 2) :: 0.0237
4) CAGCGCUGUCGAGAGGAUAUGCGGUGAUGGACAUGAGGAUCACCCAUGUUAGCGACAGCAUCACGGCAGAAGGCUCUACCGCUGC [Soteed Omei mod 18] (puzzle: Same State 2) :: 0.0193

Look up apparent KD of MS2 coat protein: AGCAUACAUGAGGAUCACCCAUGUCAACGUAGUCGAGGAUAUGGGCAGCCGUGAGGCGAACCAGAAGGCGAAUUGA [Mat - Same State 1 - Mod of JL - D3] (puzzle: Same State 1)
0.0237

Look up apparent KD of MS2 coat protein: CAGCGCUGUCGAGAGGAUAUGCGGUGAUGGACAUGAGGAUCACCCAUGUUAGCGACAGCAUUACGGUAGAAGGCUUCACAGCUGC [Soteed Omei mod 15] (puzzle: Same State 2)
0.061

* * *

- Tested on: MS2 coat protein
- Experiment: apparent KD of MS2 coat protein; designed switch direction (-1 OFF switch, 1 ON switch): -1; higher = weaker reporter binding
- Setup Conditions: input ligand: FMN 200 uM
Reported apparent KD of MS2 coat protein values follow for various sequences
Please state the figure in nM; there is no need to write the unit.

1. UGUUCGUCAGGAUAUUCUACUUAUUACAUGAGGAUCACCCAUGUGUAUGUACAAGGGUGUGAAGAAGGGACUUGUC [LRO-Excl5-07-mod A17d by Omei] (Eterna round: R97, puzzle: Exclusion 5) :: 331

Look up apparent KD of MS2 coat protein: AGAUCACAUGAGGAUCACCCAUGUCAGGAUAUCAUCAUUGAAGCUUCGGCUUCAAUGAUGAGAAGGGACAUAAU [E1/2-B1] (Eterna round: R97, puzzle: Exclusion 1)
297

Look up apparent KD of MS2 coat protein: GUAACAACUAGAGGAUAUCAGCACGUGUUGUGCUGAGAAGGCUAGAGUUACAUGAGGAUCACCCAUGUCUAGAGAUCAUUAAUU [ENG1/13-A4] (Eterna round: R96, puzzle: Exclusion NG 1)
120

Look up apparent KD of MS2 coat protein: UCGACGUCGUCAGGAUAUAGUCUUAAUGUCAUGCUUUUGUUCGUACAUGAGGAUCACCCAUGUGGCUAGAAGGGACUAAAGUUU [JR_ExcNG2_Sub016] (Eterna round: R96, puzzle: Exclusion NG 2)
16.1

Look up apparent KD of MS2 coat protein: GCGCCAUCGUGAGAUGGCGUAAUUACAUGAGGAUCACCCAUGUAGGAUAUCGAUUGCUUUGCAGUCGAGAAGGGCAUGUAUAAU [JL ENG3 3.94] (Eterna round: R96, puzzle: Exclusion NG 3)
45

The measured values listed here are drawn from the supplement of paper PMC9170038.
